Entries and their measured Log 1/C follow.
Test system: Escherichia coli
Assay: Antibacterial activity was evaluated against Escherichia coli
Format: functional
QUANTITY: Log 1/C

compound=CN1CCN(c2c(F)cc3c(=O)c(C(=O)O)cn(CF)c3c2F)CC1 reported_measurement=7.07
compound=CN1Cc2csc3c(C(=O)O)c(=O)c4cc(F)c(N5CCNCC5)c1c4n23 reported_measurement=7.11
compound=O=C(O)c1cn(C2CC2)c2cc(N3CCN(C4CC4)CC3)c(F)cc2c1=O reported_measurement=7.08
compound="CCn1cc(C(=O)O)c(=O)c2cc(F)c(N3CCNC(C)C3)c(F)c21 (stereo not given) [LOMEFLOXACIN]" reported_measurement=7.07
compound=C#CCN1CCN(c2c(F)cc3c(=O)c(C(=O)O)cn(C4CC4)c3c2Cl)CC1 reported_measurement=6.83

Data credit: ChEMBL document CHEMBL1148326
